Attribution: PubChem BioAssay AID624483

measurement_description: compound fluorescence in toxin protease inhibitor counterscreen, primary screen, artefact control for toxin protease inhibitor project, biochemical, multiplex microsphere, HTS (AID 624483)
particulars: compound autofluorescence counterscreen, microsphere flow cytometry
About 11,000 (3.1%) of roughly 360,000 compounds were called active. Another 2% or so got no clear call; they are omitted. No stated cut-off is given here; in the data, active means fluorescence intensity above about 16000; inconclusive means no clear call, values can overlap the other calls; inactive means below that. Many of the other results were omitted from the sample, so actives are more common in it than they were.
Outcome codes: class 1 for active, class 0 for inactive

1) Cc1ccc2oc(C(=O)N3CCN(C)C[C@@H]3C(C)C)c(C)c2c1; class 0
2) O=C1NC[C@H](Cc2ccc(O)cc2)N(C[C@@H]2CCCN2C[C@H](Cc2ccccc2)N2C[C@H](Cc3ccccc3)N(CC3CCCCC3)C(=O)C2=O)C1=O; class 0
3) CC1=C(C(=O)Nc2ccc(Cl)cc2)C(c2ccco2)NC(=O)N1 (configuration not stated); class 1
4) C=C(C)Cn1c(N2CCCC2)nc2c1c(=O)[nH]c(=O)n2C; class 0
5) Cc1cc(C)n2c(NCc3ccccc3)c(CC(C)C)nc2n1; class 0
6) CCOc1ccc(CCN2C(=S)N([C@@H](CC(C)C)CN3CCC[C@@H]3CN3C(=S)NC[C@@H]3Cc3ccc(O)cc3)C[C@@H]2Cc2ccc(O)cc2)cc1; class 0
7) CCOc1ccc(C(=O)Nc2nccs2)cc1[N+](=O)[O-]; class 0
8) Cc1ccc(-c2csc(SCC(=O)Nc3cc(C)on3)n2)cc1; class 1
9) CCOC(=O)C1=CN(Cc2ccc(Br)cc2)S(=O)(=O)N(C)C1C (configuration not stated); class 0
10) Cc1cccc(OCc2nnc(SCn3nnc4ccccc4c3=O)o2)c1; class 0
11) O=C(NC1CCCC1)C1c2ccccc2OCC(=O)N1Cc1ccccc1 (configuration not stated); class 0
12) COc1ccc(C(=O)NNC(=O)c2cnccn2)cc1[N+](=O)[O-]; class 1
13) C[C@@H]1CN([C@@H](C)CO)C(=O)c2cc(Br)cnc2O[C@H]1CN(C)Cc1ccc(-c2ccccc2)cc1; class 0
14) C=CCN(CC=C)S(=O)(=O)c1ccc(C(=O)Nc2nc3c(s2)CCc2ccccc2-3)cc1; class 0
15) CCC(=O)N1Cc2cc(C(=O)NCc3cccc(F)c3)nc(-c3cccc(C4=CCCC4)c3)c2[C@H]1CCO; class 0
16) COCCNC(=S)Nc1cc(S(=O)(=O)N2CCOCC2)ccc1N1CCCCC1; class 0
17) CC1(C(=O)Nc2cccc3c2CCCC3)CCN1C(=O)C1(c2ccccc2)CC1 (configuration not stated); class 0
18) Oc1ccc(-n2nnnc2SCc2c(F)cccc2Cl)cc1; class 0
19) O=C(NC1CCCC1)C(c1ccco1)N(C(=O)c1csnn1)c1ccccc1 (configuration not stated); class 0
20) CC12CCC(C(=O)N(CCC#N)CCC#N)(CC1=O)C2(C)C (configuration not stated); class 1
21) CCOC(=O)c1ccc2c(c1)nc(C)n2CC; class 0
22) CCCNC(=O)C1(C)CCN(C(=O)c2ccc(F)cc2Cl)C1 (configuration not stated); class 0
23) COc1ccc(NC(=O)C2=C(C)NC(=O)NC2c2ccccc2[N+](=O)[O-])cc1 (configuration not stated); class 0
24) Cc1cc(CNCc2c(C(=O)N(C)Cc3ccccc3)nc3ccccn23)nn1C; class 0
25) Cc1cc(N2C(=O)c3ccc(C(=O)NCc4ccccc4)cc3C2=O)no1; class 1
26) CCc1nc2ccc(C(=O)Nc3cc(-c4ccccc4)ccc3OC)cn2c1N(CC)CC(=O)N(C)C; class 0
27) Cc1nc(C(F)(F)F)ccc1C(=O)N1CCC1(C)C(=O)NS(=O)(=O)c1ccccc1 (configuration not stated); class 0
